Can you tell me growth for the items I'm about to list?
Test system: NCI/ADR-RES ovarian
test_protocol: NCI-60 one-dose screen, 48 h (100 = growth as untreated, 0 = no growth, -100 = all killed)
run_conditions: 10 µM unless noted
Compounds without any hit were thinned out: in the full panel of roughly 83,000, 20% have a hit. The source made the active and inactive calls. Rule for the calls: active = growth percent below 10; inactive = the rest.

In the examples that follow, each entry is paired with its recorded growth.
compound | growth
Fc1ccc(CNc2cccc3[nH]c(C(F)(F)F)nc23)cc1 | 100% (inactive)
CCN1CCN(c2nc(NCCNc3ccnc4cc(Cl)ccc34)c3ccccc3n2)CC1 | 70.3% (inactive)
COc1cc(/C=C/C(=O)Nc2cccnc2Nc2ccc(F)cc2)cc(OC)c1OC | 101% (inactive)
O=C(COc1ccc(-c2nc3cc(Cl)c(Cl)cc3[nH]2)cc1)N=Nc1c(O)[nH]c2ccccc12 | 85.1% (inactive)
Cc1cc(C)nc(SC2=C(Nc3cccc(Cl)c3)C(=O)N(Cc3ccccc3)C2=O)n1 | 55.5% [30 µM] (inactive)

I'm hoping you can list growth for every compound here, please.
1. CON1C(=O)CC[C@]2(C)[C@H]3CC[C@@H]4C([C@@]5(C)CCC(=O)O5)CC[C@@]4(C)[C@]3(C)CC[C@H]2C1(C)C (some centres undefined)
2. COc1ccc2nc(NC(=O)CSc3nnc4n3S(=O)(=O)c3ccccc3N4c3ccccc3)sc2c1

["97.1% (inactive)", "93.5% (inactive)"]

I'm hoping you can list growth for every compound here, please.
1. FC(F)(F)Oc1ccc2nc3nc4ccc[nH]c4cc3c2c1
2. COc1ccc(NC2=C(Sc3nc(C)cc(C)n3)C(=O)N(Cc3ccccc3)C2=O)cc1Cl
3. COc1cc(-c2ccc3c(c2)NC(=O)/C3=C\c2ccc[nH]2)ccc1O
4. C=C1C(=O)O[C@H]2[C@H]1CC/C(COC(=O)NCc1ccc(OC)c(OC)c1)=C\CC[C@@]1(C)O[C@@H]21
5. COc1cccc(NC(=O)c2sc3nc(C)c(C(C)=O)cc3c2N)c1
6. Cn1cccc1-c1nc2c3c(ccc2[nH]1)C(=O)c1ccccc1C3=O
7. O=C1/C(=C/c2ccccc2)SC(=S)N1CCc1ccc(O)cc1

85.8% (inactive)
63.5% [30 µM] (inactive)
12.7% (inactive)
93.9% (inactive)
34.1% (inactive)
81.8% (inactive)
99.3% (inactive)
